- tested on: FimH proteins (Escherichia coli)
- Construct: endogenous in cells; host or cells: UPEC strain UTI89 (whole bacteria)
- test name: hemagglutination inhibition (HAI) assay: UPEC UTI89 with guinea pig red blood cells
- Format: cell-based, uropathogenic Escherichia coli (UPEC) UTI89
- reported conditions: read-out: HAI EC90 (minimum concentration for inhibiting hemagglutination)
value type: EC90 (nM)
The reply should be a number in nM, with the unit left off.

[ask] For O=c1ccc(C#C[C@H]2O[C@H](CO)[C@@H](O)[C@H](O)[C@@]2(O)C#Cc2ccccc2)cn1-c1ccccc1 , what is its reported EC90?
[reply] 64

[ask] Follow-up entry: CC(C)Oc1cccc(C#C[C@H]2O[C@H](CO)[C@@H](O)[C@H](O)[C@@]2(O)C#Cc2ccccc2)c1
[reply] 130

[ask] Next: CNC(=O)c1cccc(-c2ccc(O[C@H]3O[C@H](CO)[C@@H](O)[C@H](O)[C@@]3(O)C#Cc3ccccc3)c(C)c2)c1
[reply] 8

[ask] Subsequent entry: OC[C@H]1O[C@H](C#Cc2cnn(-c3ccc(C(F)(F)F)cc3)c2)[C@](O)(C#CC2CC2)[C@@H](O)[C@@H]1O
[reply] 4

[ask] Note, next up: CO[C@H]1CC[C@H](n2cc(C#C[C@H]3O[C@H](CO)[C@@H](O)[C@H](O)[C@@]3(O)C#Cc3cc(F)cc(F)c3)cn2)CC1
[reply] 8

[ask] Would you mind doing CCC(C)O[C@H]1O[C@H](CO)[C@@H](O)[C@H](O)[C@@]1(O)C#Cc1ccc(F)cc1 (some centres unmarked) as well?
[reply] 520

[ask] Can you check OC[C@H]1O[C@H](C#Cc2cnn([C@@H]3CCOC3)c2)[C@](O)(C#Cc2ccccc2)[C@@H](O)[C@@H]1O next?
[reply] 130

[ask] Follow-up item: CC(C)O[C@H]1O[C@H](CO)[C@@H](O)[C@H](O)[C@@]1(O)C#Cc1ccccc1
[reply] 1040

[ask] And then OC[C@H]1O[C@H](OC2CCCC2)[C@](O)(C#Cc2ccccc2)[C@@H](O)[C@@H]1O , what is it?
[reply] 520

[ask] Repeat for the following compound: OC[C@H]1O[C@H](C#Cc2cnn(-c3ccc(C4CC4)cc3)c2)[C@](O)(C#CC2CC2)[C@@H](O)[C@@H]1O
[reply] 0.13

[ask] // repeat for Cc1cc(Br)ccc1O[C@H]1O[C@H](CO)[C@@H](O)[C@H](O)[C@@]1(O)C#Cc1ccccc1 and report
[reply] 1040

[ask] Next up: Cn1cc(C#C[C@@]2(O)[C@@H](C#Cc3cnn(C4CCCCC4)c3)O[C@H](CO)[C@@H](O)[C@@H]2O)cn1
[reply] 2

[ask] Same lookup for OC[C@H]1O[C@H](C#Cc2cnn(-c3cccc(Cl)c3)c2)[C@](O)(C#CC2CC2)[C@@H](O)[C@@H]1O , please.
[reply] 2

[ask] What do you get for CC(C)c1cccc(C#C[C@@]2(O)[C@@H](C#Cc3ccccc3)O[C@H](CO)[C@@H](O)[C@@H]2O)c1 ?
[reply] 520

* * *

- tested on: FimH proteins (Escherichia coli, UniProt Q1R2J4)
- Construct: endogenous in cells; host or cells: UPEC strain UTI89 (whole bacteria)
- test name: hemagglutination inhibition (HAI) assay: UPEC UTI89 with guinea pig red blood cells
- Assay type: cell-based, uropathogenic Escherichia coli (UPEC) UTI89
- reported conditions: read-out: HAI EC90 (minimum concentration for inhibiting hemagglutination)
Give measured log10(EC90) for each item. Keep answers brief.
Use the decimal logarithm of EC90 (nM).

[ask] I would be grateful if you could share the reported log10(EC90) for OC[C@H]1O[C@H](C#Cc2cnn(-c3ccccc3)c2)[C@](O)(C#CC2CC2)[C@@H](O)[C@@H]1O .
[reply] 0.60

[ask] Try this compound next: OC[C@H]1O[C@H](C#Cc2cccc(C(F)(F)F)c2)[C@](O)(C#Cc2ccccc2)[C@@H](O)[C@@H]1O
[reply] 2.41

[ask] Quick one: OC[C@H]1O[C@H](C#Cc2ccccc2)[C@](O)(C#Cc2ccccc2)[C@@H](O)[C@@H]1O
[reply] 2.11

[ask] Also CC(C)n1cc(C#C[C@H]2O[C@H](CO)[C@@H](O)[C@H](O)[C@@]2(O)C#Cc2ccccc2)cn1 ?
[reply] 0.90

[ask] Proceed to OC[C@H]1O[C@H](C#Cc2cnn(C3CCOCC3)c2)[C@](O)(C#Cc2ccccc2)[C@@H](O)[C@@H]1O
[reply] 0.60

[ask] Consider next the compound OC[C@H]1O[C@H](OC2CCCCC2)[C@](O)(C#Cc2ccccc2)[C@@H](O)[C@@H]1O in the same way.
[reply] 2.41

[ask] Record: CC(n1cc(C#C[C@H]2O[C@H](CO)[C@@H](O)[C@H](O)[C@@]2(O)C#Cc2ccccc2)cn1)C(F)(F)F (stereo partly drawn)
[reply] 1.20

[ask] And then CCC(C)O[C@H]1O[C@H](CO)[C@@H](O)[C@H](O)[C@@]1(O)C#Cc1cccc(Cl)c1 (stereo partly drawn) , what is it?
[reply] 2.41

[ask] Would you mind doing CC(C)Oc1cccc(C#C[C@@]2(O)[C@@H](C#Cc3ccccc3)O[C@H](CO)[C@@H](O)[C@@H]2O)c1 as well?
[reply] 2.41

* * *

- tested on: FimH proteins (Escherichia coli, UniProt Q1R2J4)
- Construct: endogenous in cells; host or cells: UPEC strain UTI89 (whole bacteria)
- test name: hemagglutination inhibition (HAI) assay: UPEC UTI89 with guinea pig red blood cells
- Format: cell-based, uropathogenic Escherichia coli (UPEC) UTI89
- reported conditions: read-out: HAI EC90 (minimum concentration for inhibiting hemagglutination)
value type: EC90

[ask] Endpoint output: EC90 of OC[C@H]1O[C@H](C#Cc2cccc3ccccc23)[C@](O)(C#Cc2ccccc2)[C@@H](O)[C@@H]1O . Value?
[reply] 520 nM

[ask] Could you do the same for CS(=O)(=O)c1cccc(C#C[C@@]2(O)[C@@H](C#Cc3ccccc3)O[C@H](CO)[C@@H](O)[C@@H]2O)c1 , please?
[reply] 130 nM

[ask] Here is the next molecule: Cc1ccc(-n2cc(C#C[C@H]3O[C@H](CO)[C@@H](O)[C@H](O)[C@@]3(O)C#CC3CC3)cn2)cc1
[reply] < 0.1 nM

[ask] Item: OC[C@H]1O[C@H](C#Cc2cnn(-c3ccc(F)cc3)c2)[C@](O)(C#CC2CC2)[C@@H](O)[C@@H]1O
[reply] 2 nM

[ask] Then what about the molecule CC(C)Oc1ccc(-n2cc(C#C[C@H]3O[C@H](CO)[C@@H](O)[C@H](O)[C@@]3(O)C#CC3CC3)cn2)cc1 ?
[reply] < 0.1 nM

[ask] How about this molecule: CCC#C[C@@]1(O)[C@@H](C#Cc2cnn(-c3ccc(Cl)cc3)c2)O[C@H](CO)[C@@H](O)[C@@H]1O
[reply] 2 nM

[ask] Follow-up entry: OC[C@H]1O[C@H](C#Cc2cnn(-c3ccc(Cl)cc3)c2)[C@](O)(C#Cc2ccccc2)[C@@H](O)[C@@H]1O
[reply] 0.13 nM

[ask] Same thing, different molecule: N#Cc1ccc(-n2cc(C#C[C@H]3O[C@H](CO)[C@@H](O)[C@H](O)[C@@]3(O)C#CC3CC3)cn2)cc1
[reply] 4 nM

[ask] // same read-out, input: COc1ccc(-n2cc(C#C[C@H]3O[C@H](CO)[C@@H](O)[C@H](O)[C@@]3(O)C#Cc3ccccc3)cn2)cc1
[reply] < 0.1 nM

[ask] Same read-out for CC(C)c1cccc(C#C[C@H]2O[C@H](CO)[C@@H](O)[C@H](O)[C@@]2(O)C#Cc2ccccc2)c1 ?
[reply] 130 nM

[ask] What would you report for Cc1cccc(C#C[C@H]2O[C@H](CO)[C@@H](O)[C@H](O)[C@@]2(O)C#Cc2ccccc2)c1 ?
[reply] 260 nM

[ask] Same again, this time with CCC(C)O[C@H]1O[C@H](CO)[C@@H](O)[C@H](O)[C@@]1(O)C#Cc1cccc(OC)c1 (stereo partly drawn)
[reply] 520 nM

[ask] And what about the molecule OC[C@H]1O[C@H](C#Cc2cnn(-c3ccc(OC(F)(F)F)cc3)c2)[C@](O)(C#CC2CC2)[C@@H](O)[C@@H]1O ?
[reply] 0.13 nM

[ask] And the next one, OC[C@H]1O[C@H](C#Cc2cnn(-c3cccc(Cl)c3)c2)[C@](O)(C#Cc2ccccc2)[C@@H](O)[C@@H]1O ?
[reply] 0.13 nM

[ask] Do the same for OC[C@H]1O[C@H](C#Cc2cnn(-c3ccc(F)cc3)c2)[C@](O)(C#Cc2ccccc2)[C@@H](O)[C@@H]1O please
[reply] 8 nM

* * *

- tested on: FimH proteins (Escherichia coli)
- Construct: endogenous in cells; host or cells: UPEC strain UTI89 (whole bacteria)
- test name: hemagglutination inhibition (HAI) assay: UPEC UTI89 with guinea pig red blood cells
- Assay type: cell-based, uropathogenic Escherichia coli (UPEC) UTI89
- reported conditions: read-out: HAI EC90 (minimum concentration for inhibiting hemagglutination)
Kindly state EC90 for each of the entries shown.

[ask] Item COCCOc1ccc(-n2cc(C#C[C@H]3O[C@H](CO)[C@@H](O)[C@H](O)[C@@]3(O)C#CC3CC3)cn2)cc1 has what recorded EC90?
[reply] < 100 pM

[ask] Now the molecule OC[C@H]1O[C@H](C#Cc2cnn(-c3ccc(Cl)cc3)c2)[C@](O)(C#CC2CC2)[C@@H](O)[C@@H]1O
[reply] < 100 pM

[ask] Now give it for OC[C@H]1O[C@H](C#Cc2cnn(-c3ccc(O[C@H]4CCOC4)cc3)c2)[C@](O)(C#CC2CC2)[C@@H](O)[C@@H]1O too.
[reply] < 100 pM
